test system: Staphylococcus sp.; assay: In vitro antibacterial evaluation: minimum inhibitory concentration (MIC), broth dilution method; assay type: cell-based; settings: strain GC 1131; broth dilution, 18 hours at 35° C.
Measurement Kind: MIC Staphylococcus aureus (GC 1131) (µg/mL)
One number for each entry, in µg/mL.

Cc1cccc(C2OCC3OC(OC4C(CO)OC(Oc5ccc(CC6NC(=O)C(C(C)c7ccccc7)NC(=O)CNC(=O)C(CO)NC(=O)C(C(O)C7CNC(=N)N7C7OC(CO)C(O)C(O)C7O)NC(=O)C(C(O)C7CNC(=N)N7)NC6=O)cc5)C(O)C4O)C(O)C(O)C3O2)c1 (stereo not drawn) [Example 135] = 1
CC(=O)n1cc(C2OCC3OC(OC4C(CO)OC(Oc5ccc(CC6NC(=O)C(C(C)c7ccccc7)NC(=O)CNC(=O)C(CO)NC(=O)C(C(O)C7CNC(=N)N7C7OC(CO)C(O)C(O)C7O)NC(=O)C(C(O)C7CNC(=N)N7)NC6=O)cc5)C(O)C4O)C(O)C(O)C3O2)c2ccccc21 (stereo not drawn) [Example 161] = 8
CC(c1ccccc1)C1NC(=O)CNC(=O)C(CO)NC(=O)C(C(O)C2CNC(=N)N2C2OC(CO)C(O)C(O)C2O)NC(=O)C(C(O)C2CNC(=N)N2)NC(=O)C(Cc2ccc(OC3OC(CO)C(OC4OC5COC(C6CCCC6)OC5C(O)C4O)C(O)C3O)cc2)NC1=O (stereo not drawn) [Example 117] = 2

Would you be so kind as to report MIC Staphylococcus aureus (GC 1131) for each listed record?
1. CC(c1ccccc1)C1NC(=O)CNC(=O)C(CO)NC(=O)C(C(O)C2CNC(=N)N2C2OC(CO)C(O)C(O)C2O)NC(=O)C(C(O)C2CNC(=N)N2)NC(=O)C(Cc2ccc(OC3OC(CO)C(OC4OC5COC(c6cccc(O)c6)OC5C(O)C4O)C(O)C3O)cc2)NC1=O (stereo not drawn) [Example 136]
2. CC(c1ccccc1)C1NC(=O)CNC(=O)C(CO)NC(=O)C(C(O)C2CNC(=N)N2C2OC(CO)C(O)C(O)C2O)NC(=O)C(C(O)C2CNC(=N)N2)NC(=O)C(Cc2ccc(OC3OC(CO)C(OC4OC5COC(CC6CCCCC6)OC5C(O)C4O)C(O)C3O)cc2)NC1=O (stereo not drawn) [Example 122]
3. CCCCCC1OCC2OC(OC3C(CO)OC(Oc4ccc(CC5NC(=O)C(C(C)c6ccccc6)NC(=O)CNC(=O)C(CO)NC(=O)C(C(O)C6CNC(=N)N6C6OC(CO)C(O)C(O)C6O)NC(=O)C(C(O)C6CNC(=N)N6)NC5=O)cc4)C(O)C3O)C(O)C(O)C2O1 (stereo not drawn) [Example 108]
4. CCC(CC)C1OCC2OC(OC3C(CO)OC(Oc4ccc(CC5NC(=O)C(C(C)c6ccccc6)NC(=O)CNC(=O)C(CO)NC(=O)C(C(O)C6CNC(=N)N6C6OC(CO)C(O)C(O)C6O)NC(=O)C(C(O)C6CNC(=N)N6)NC5=O)cc4)C(O)C3O)C(O)C(O)C2O1 (stereo not drawn) [Example 116]
5. CCCc1ccc(C2OCC3OC(OC4C(CO)OC(Oc5ccc(CC6NC(=O)C(C(C)c7ccccc7)NC(=O)CNC(=O)C(CO)NC(=O)C(C(O)C7CNC(=N)N7C7OC(CO)C(O)C(O)C7O)NC(=O)C(C(O)C7CNC(=N)N7)NC6=O)cc5)C(O)C4O)C(O)C(O)C3O2)cc1 (stereo not drawn) [Example 140]
6. COC1CCC2(C)C(CCC3C2CCC2(C)C(C(C)CCC4OCC5OC(OC6C(CO)OC(Oc7ccc(CC8NC(=O)C(C(C)c9ccccc9)NC(=O)CNC(=O)C(CO)NC(=O)C(C(O)C9CNC(=N)N9C9OC(CO)C(O)C(O)C9O)NC(=O)C(C(O)C9CNC(=N)N9)NC8=O)cc7)C(O)C6O)C(O)C(O)C5O4)CCC32)C1 (stereo not drawn) [Example 130]
7. CC(c1ccccc1)C1NC(=O)CNC(=O)C(CO)NC(=O)C(C(O)C2CNC(=N)N2C2OC(CO)C(O)C(O)C2O)NC(=O)C(C(O)C2CNC(=N)N2)NC(=O)C(Cc2ccc(OC3OC(CO)C(OC4OC5COC(c6cccc(-c7ccccc7)c6)OC5C(O)C4O)C(O)C3O)cc2)NC1=O (stereo not drawn) [Example 154]
8. CC(c1ccccc1)C1NC(=O)CNC(=O)C(CO)NC(=O)C(C(O)C2CNC(=N)N2C2OC(CO)C(O)C(O)C2O)NC(=O)C(C(O)C2CNC(=N)N2)NC(=O)C(Cc2ccc(OC3OC(CO)C(OC4OC5COC(c6ccsc6)OC5C(O)C4O)C(O)C3O)cc2)NC1=O (stereo not drawn) [Example 133]

[16, 2, 1, 1, 1, 32, 1, 2]

Would you be so kind as to report MIC Staphylococcus aureus (GC 1131) for each listed record?
1. CCOc1cc(C2OCC3OC(OC4C(CO)OC(Oc5ccc(CC6NC(=O)C(C(C)c7ccccc7)NC(=O)CNC(=O)C(CO)NC(=O)C(C(O)C7CNC(=N)N7C7OC(CO)C(O)C(O)C7O)NC(=O)C(C(O)C7CNC(=N)N7)NC6=O)cc5)C(O)C4O)C(O)C(O)C3O2)ccc1OC (stereo not drawn) [Example 152]
2. COc1cc(OC)cc(C2OC3C(OC4C(CO)OC(Oc5ccc(CC6NC(=O)C(C(C)c7ccccc7)NC(=O)CNC(=O)C(CO)NC(=O)C(C(O)C7CNC(=N)N7C7OC(CO)C(O)C(O)C7O)NC(=O)C(C(O)C7CNC(=N)N7)NC6=O)cc5)C(O)C4O)OC(CO)C(O)C3O2)c1 (stereo not drawn) [Example 150a]
3. CC(c1ccccc1)C1NC(=O)CNC(=O)C(CO)NC(=O)C(C(O)C2CNC(=N)N2C2OC(CO)C(O)C(O)C2O)NC(=O)C(C(O)C2CNC(=N)N2)NC(=O)C(Cc2ccc(OC3OC(CO)C(OC4OC5COC(Cc6ccc(F)cc6)OC5C(O)C4O)C(O)C3O)cc2)NC1=O (stereo not drawn) [Example 121]

[16, 32, 2]
